Tested on: MDR1
ASSAY OVERVIEW: Efflux ratio of permeability across MDCK2 expressing MDR1 at 5 uM after 120 mins by LC/MS/MS method
Type: ADME, Canis lupus familiaris, MDCK-II
CONDITIONS: dog, MDCK-MDR1

COMPOUND SMILES	efflux ratio at 2 h, 5 µM
O=C(Cn1c(=O)ccc2cc(F)c(F)cc21)Nc1scc(Br)c1-c1ncn[nH]1	0.68
O=C(Cn1c(=O)ccc2cc(C(F)(F)F)ccc21)Nc1scc(Br)c1-c1ncn[nH]1	0.61
N#Cc1ccc2c(ccc(=O)n2CC(=O)Nc2scc(Br)c2-c2ncn[nH]2)c1	4.18
O=C(CN1C(=O)CCc2ncccc21)Nc1scc(Br)c1-c1ncn[nH]1	1.8

* * *

Property: Kp; scope: individual molecules
ASSAY OVERVIEW: Ratio of drug level in brain to plasma in mouse at 1 mg/kg, iv
Format: ADME, organism-based
Parameters: dose 1 mg/kg, route intravenous
CONDITIONS: read-out: BPR

COMPOUND SMILES	Kp
O=C(CN1C(=O)CCc2ncccc21)Nc1scc(Br)c1-c1ncn[nH]1	0.24
O=C(Cc1cccc2cnccc12)Nc1scc(Cl)c1-c1ncn[nH]1	0.4
O=C(Cn1c(=O)ccc2cc(F)c(F)cc21)Nc1scc(Br)c1-c1ncn[nH]1	1.4
O=C(Cn1c(=O)ccc2cc(C(F)(F)F)ccc21)Nc1scc(Br)c1-c1ncn[nH]1	0.7

* * *

Property: pIC50; scope: individual compounds
TESTED TARGET: Mitogen-activated protein kinase 9 (Homo sapiens, UniProt P45984)
Sequence (P45984 whole entry): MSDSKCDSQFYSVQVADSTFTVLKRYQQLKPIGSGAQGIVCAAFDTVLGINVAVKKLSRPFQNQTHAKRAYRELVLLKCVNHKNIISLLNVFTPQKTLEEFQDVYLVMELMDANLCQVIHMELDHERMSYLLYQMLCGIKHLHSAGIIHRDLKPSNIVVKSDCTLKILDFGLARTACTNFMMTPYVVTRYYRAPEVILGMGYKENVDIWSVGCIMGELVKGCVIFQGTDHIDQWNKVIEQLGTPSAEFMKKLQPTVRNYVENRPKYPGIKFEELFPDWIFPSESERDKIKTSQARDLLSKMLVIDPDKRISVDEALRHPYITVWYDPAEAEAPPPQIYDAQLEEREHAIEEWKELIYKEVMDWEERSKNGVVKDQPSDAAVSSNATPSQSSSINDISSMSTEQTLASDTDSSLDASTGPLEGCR
ASSAY OVERVIEW: Inhibition of recombinant JNK2 using ser73 of c-jun as substrate preincubated for 15 mins measured after 60 mins by TR-FRET assay
pIC50: −log10 of the molar value.
MEASUREMENT TYPE: pIC50

COMPOUND SMILES	VAL
O=C(CN1C(=O)CCc2ncccc21)Nc1scc(Br)c1-c1ncn[nH]1	7.49
N#Cc1csc(NC(=O)Cn2c(=O)ccc3cc(C(F)(F)F)ccc32)c1-c1ncco1	7.54
O=C(Cc1cccc2ncc(F)cc12)Nc1scc(Br)c1-c1nc[nH]n1	7.04
O=C(Cn1c(=O)ccn2nccc12)Nc1scc(Br)c1-c1ncn[nH]1	7.13
O=C(Cn1c(=O)ccc2c(C(F)(F)F)cccc21)Nc1scc(Br)c1-c1ncn[nH]1	6.71
N#Cc1csc(NC(=O)Cn2c(=O)ccc3cc(C(F)(F)F)ccc32)c1-c1cscn1	7.77
O=C(Cc1ccc(F)c2cnccc12)Nc1scc(Br)c1-c1ncn[nH]1	7.17
O=C(Cc1cc(F)cc2ncccc12)Nc1scc(Br)c1-c1ncn[nH]1	6.85
O=C(Cn1c(=O)ccc2cc(F)c(F)cc21)Nc1scc(Br)c1-c1ncn[nH]1	7.82
O=C(CN1C(=O)CCc2ncccc21)Nc1scc(Br)c1-c1nccs1	6.84

* * *

Property: remaining at 0.5 h, 1 µM; scope: individual compounds
ASSAY OVERVIEW: Oxidative metabolic stability in rat liver microsomes assessed as compound remaining at 1 uM after 30 mins
Format: ADME, Microsome
CONDITIONS: read-out: Stability

COMPOUND SMILES	remaining at 0.5 h, 1 µM
N#Cc1csc(NC(=O)Cn2c(=O)ccc3cc(C(F)(F)F)ccc32)c1-c1ncco1	2%
O=C(Cn1c(=O)ccc2cnccc21)Nc1scc(Br)c1-c1ncn[nH]1	60%
O=C(CN1C(=O)CCc2ncccc21)Nc1scc(Br)c1-c1ncn[nH]1	50%
O=C(CN1C(=O)CCc2ncccc21)Nc1scc(Br)c1-c1ncco1	0%
Cn1cnc(-c2c(Br)csc2NC(=O)CN2C(=O)CCc3ncccc32)n1	37%

* * *

ASSAY OVERVIEW: Oxidative metabolic stability in mouse liver microsomes assessed as compound remaining at 1 uM after 30 mins
Format: ADME, Microsome
CONDITIONS: read-out: Stability

COMPOUND SMILES	remaining at 0.5 h, 1 µM [%]
O=C(Cn1c(=O)ccc2cnccc21)Nc1scc(Br)c1-c1ncn[nH]1	51
O=C(Cc1cc(F)cc2ncccc12)Nc1scc(Br)c1-c1ncn[nH]1	5
O=C(Cc1cccc2ncc(C(F)(F)F)cc12)Nc1scc(Br)c1-c1nc[nH]n1	3

* * *

ASSAY OVERVIEW: Oxidative metabolic stability in human liver microsomes assessed as compound remaining at 1 uM after 30 mins
Type: ADME, Microsome
CONDITIONS: read-out: Stability
Property: remaining at 0.5 h, 1 µM; scope: individual compounds

COMPOUND SMILES	UNIT TEXT	remaining at 0.5 h, 1 µM
O=C(Cn1c(=O)ccc2cnccc21)Nc1scc(Br)c1-c1ncn[nH]1	%	85
O=C(Cn1c(=O)ccc2cnc(C(F)(F)F)cc21)Nc1scc(Br)c1-c1ncn[nH]1	%	77
N#Cc1csc(NC(=O)CN2C(=O)CCc3ncccc32)c1-c1nc[nH]n1	%	80
O=C(Cn1c(=O)ccc2c(C(F)(F)F)cccc21)Nc1scc(Br)c1-c1ncn[nH]1	%	49
N#Cc1csc(NC(=O)Cn2c(=O)ccc3cc(C(F)(F)F)ccc32)c1-c1cscn1	%	32
O=C(Cn1c(=O)ccn2nccc12)Nc1scc(Br)c1-c1ncn[nH]1	%	72
O=C(CN1C(=O)CCc2ncccc21)Nc1scc(Br)c1-c1nccs1	%	3
Cn1cnc(-c2c(Br)csc2NC(=O)CN2C(=O)CCc3ncccc32)n1	%	46
O=C(Cn1c(=O)ccc2ccc(OC(F)(F)F)cc21)Nc1scc(Br)c1-c1ncn[nH]1	%	29
O=C(Cn1c(=O)ccn2nc(C(F)(F)F)cc12)Nc1scc(Br)c1-c1ncn[nH]1	%	48
N#Cc1ccc2ccc(=O)n(CC(=O)Nc3scc(Br)c3-c3ncn[nH]3)c2c1	%	59
O=C(CN1C(=O)CCc2ccccc21)Nc1scc(Br)c1-c1ncn[nH]1	%	24
N#Cc1csc(NC(=O)Cn2c(=O)ccc3cc(C(F)(F)F)ccc32)c1-c1nccs1	%	75
O=C(Cn1c(=O)ccc2ccc(C(F)(F)F)cc21)Nc1scc(Br)c1-c1ncn[nH]1	%	44
N#Cc1ccc2c(ccc(=O)n2CC(=O)Nc2scc(Br)c2-c2ncn[nH]2)c1	%	69
O=C(Cn1c(=O)ccc2cc(C(F)(F)F)ccc21)Nc1scc(Br)c1-c1ncn[nH]1	%	67
O=C(Cc1ccc(C(F)(F)F)c2ncccc12)Nc1scc(Cl)c1-c1ncn[nH]1	%	32
O=C(Cn1c(=O)ccc2nc(C(F)(F)F)ccc21)Nc1scc(Br)c1-c1ncn[nH]1	%	64
O=C(Cc1ccc(F)c2cnccc12)Nc1scc(Br)c1-c1ncn[nH]1	%	44

* * *

Property: IC50; scope: individual compounds
TESTED TARGET: Mitogen-activated protein kinase 10 (Homo sapiens)
Sequence (P53779 whole entry): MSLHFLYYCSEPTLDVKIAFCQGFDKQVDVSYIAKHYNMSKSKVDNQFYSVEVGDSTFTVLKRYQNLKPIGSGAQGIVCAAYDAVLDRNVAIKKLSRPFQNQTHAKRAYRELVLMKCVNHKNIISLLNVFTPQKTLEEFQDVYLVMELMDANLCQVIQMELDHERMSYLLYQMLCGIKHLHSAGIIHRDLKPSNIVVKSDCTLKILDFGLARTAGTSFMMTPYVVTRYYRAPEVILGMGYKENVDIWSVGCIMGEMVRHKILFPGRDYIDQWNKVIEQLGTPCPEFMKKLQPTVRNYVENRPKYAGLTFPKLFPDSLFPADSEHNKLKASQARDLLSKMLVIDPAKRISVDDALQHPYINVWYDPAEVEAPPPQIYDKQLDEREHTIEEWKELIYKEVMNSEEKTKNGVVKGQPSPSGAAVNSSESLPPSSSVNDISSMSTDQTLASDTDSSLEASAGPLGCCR
ASSAY OVERVIEW: Inhibition of recombinant JNK3 using ser73 of c-jun as substrate preincubated for 15 mins measured after 60 mins by TR-FRET assay

COMPOUND SMILES	TESTED TARGET	IC50, nM
N#Cc1csc(NC(=O)CN2C(=O)CCc3ncccc32)c1-c1nc[nH]n1	Mitogen-activated protein kinase 10 (Homo sapiens)	6
O=C(Cn1c(=O)ccc2cc(C(F)(F)F)ccc21)Nc1scc(Br)c1-c1ncn[nH]1	Mitogen-activated protein kinase 10 (Homo sapiens)	9
N#Cc1csc(NC(=O)Cn2c(=O)ccc3cc(C(F)(F)F)ccc32)c1-c1nccs1	Mitogen-activated protein kinase 10 (Homo sapiens)	9
O=C(Cn1c(=O)ccc2cnc(C(F)(F)F)cc21)Nc1scc(Br)c1-c1ncn[nH]1	Mitogen-activated protein kinase 10 (Homo sapiens)	6
O=C(Cn1c(=O)ccc2ccc(C(F)(F)F)cc21)Nc1scc(Br)c1-c1ncn[nH]1	Mitogen-activated protein kinase 10 (Homo sapiens)	9

* * *

TESTED TARGET: Mitogen-activated protein kinase 10 (Homo sapiens)
ASSAY OVERVIEW: Inhibition of recombinant JNK3 using ser73 of c-jun as substrate preincubated for 15 mins measured after 60 mins by TR-FRET assay
With a cut-off of 20 nM, any IC50 strictly below it is called 1; any IC50 meeting it or above is called -1.

COMPOUND SMILES	QUALITATIVE LABEL
O=C(Cn1c(=O)ccc2nc(C(F)(F)F)ccc21)Nc1scc(Br)c1-c1ncn[nH]1	1
O=C(CN1C(=O)CCc2ncccc21)Nc1scc(Br)c1-c1ncn[nH]1	1
O=C(Cn1c(=O)ccn2nc(C(F)(F)F)cc12)Nc1scc(Br)c1-c1ncn[nH]1	1
N#Cc1csc(NC(=O)Cn2c(=O)ccc3cc(C(F)(F)F)ccc32)c1-c1ncco1	1
O=C(Cn1c(=O)ccc2cnccc21)Nc1scc(Br)c1-c1ncn[nH]1	1
O=C(Cc1cc(F)cc2ncccc12)Nc1scc(Br)c1-c1ncn[nH]1	-1
O=C(Cc1cccc2ncc(F)cc12)Nc1scc(Br)c1-c1nc[nH]n1	-1
O=C(Cc1ccc(F)c2cnccc12)Nc1scc(Br)c1-c1ncn[nH]1	-1

# credit: ChEMBL document CHEMBL1821697
